Reported glycan array binding signal (z-score) values for a set of binders
# target-or-system: GlcA(b1-6)Gal
# experimental-protocol: glycan array binding signal (z-score within array); higher = stronger binding
# condition-set: glycan notation: IUPAC condensed, linker removed
Only a selection was taken, and the strongest signals are over-represented in it overall.

binder	metric	result
Pwp2 (Candida glabrata) (protein) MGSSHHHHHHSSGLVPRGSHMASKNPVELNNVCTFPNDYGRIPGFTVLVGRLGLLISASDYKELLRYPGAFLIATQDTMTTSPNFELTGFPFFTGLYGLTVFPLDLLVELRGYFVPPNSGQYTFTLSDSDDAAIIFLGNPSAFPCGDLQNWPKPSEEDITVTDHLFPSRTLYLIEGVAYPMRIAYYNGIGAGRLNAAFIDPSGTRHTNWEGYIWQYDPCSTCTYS	glycan array binding signal (z-score)	-0.235
AFL5 (Aspergillus fumigatus), Q4WB00 (protein) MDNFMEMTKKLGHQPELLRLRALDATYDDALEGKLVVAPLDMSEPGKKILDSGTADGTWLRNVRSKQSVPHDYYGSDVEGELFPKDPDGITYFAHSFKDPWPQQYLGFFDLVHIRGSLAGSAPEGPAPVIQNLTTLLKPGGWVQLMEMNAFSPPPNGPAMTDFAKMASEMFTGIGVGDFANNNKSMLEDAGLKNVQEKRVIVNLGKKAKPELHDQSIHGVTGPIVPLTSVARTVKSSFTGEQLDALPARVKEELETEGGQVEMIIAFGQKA	glycan array binding signal (z-score)	-0.217

Exercise: Looking for the measured glycan array binding signal (z-score) of Mg1lysM (Mycosphaerella graminicola) (protein) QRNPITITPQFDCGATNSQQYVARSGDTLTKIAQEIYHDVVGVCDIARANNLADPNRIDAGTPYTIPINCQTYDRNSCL , can you help?
Key: -0.062

Data origin, for the record: the supplement of paper PMC8728848
